tested on: MDA-MB-231; experiment: Antiproliferative activity against human MDA-MB-231 cells after 72 hrs by colorimetric tetrazolium assay; format: functional, cell-based; details: MDA-MB-231, 72 h
endpoint.name: IC50

structure.smiles.string	endpoint.name	endpoint.result
CCCCCCCCn1cc(C(N)=O)c2cc(-c3cccc(C)c3)ccc21	IC50	> 100 µM
CCCCCCCCn1cc(CC(=O)OC)c2cc(-c3cccc(C)c3)ccc21	IC50	> 100 µM
CC(C)=CCn1ccc2cc(-c3cccc(C)c3)ccc21	IC50	> 100 µM
CCCCCCCCn1cc(CC(=O)N2CCN(C)CC2)c2cc(-c3cccc(C)c3)ccc21	IC50	19.7 µM
CCCCCCCCn1cc(CC(=O)N(C)C)c2cc(-c3cccc(C)c3)ccc21	IC50	31 µM
